Tested on: CP203
assay_text: qHTS profiling for inhibitors of Plasmodium falciparum proliferation (AID 504749); also: nearly all actives have a fitted effect of over 60% in size
experimental_setup: P. falciparum in erythrocytes, SYBR Green DNA, 72 h; series mostly up to 28.7 µM
Inconclusive results are not listed. Activity calls are given as the source filed them. Calls follow the shape of the dose curve; as a rule, active = well fitted inhibition curve with a large enough effect; inconclusive = small, poorly fitted or top-dose-only effect; inactive = flat fitted curve, though single readings scatter.
Form entry, call: pick from YES = active, NO = inactive

Lookup: Lab log entry: ClC1=C(Cl)C2(Cl)C3C4CC(C5OC45)C3C1(Cl)C2(Cl)Cl (stereo unspecified) — outcome as called in the assay?
Found: NO

Lookup: Recorded test outcome, item `CC(=O)O[C@H]1CC[C@@]2(C)C(=CC[C@@H]3[C@H]2CC[C@]2(C)C(=O)CC[C@H]32)C1`
Found: NO

Lookup: Each compound tested received a call. Report the one for CNc1ccc(C(=O)CC(O)CCC(C)C2OC(=O)CC(O)CC(=O)CC(O)CC(O)CC(O)CC(O)CC3(O)CC(O)C(C(=O)OC)C(CC(O[C@@H]4OC(C)C(O)C(N)C4O)/C=C/C=C/C=C/C=C/C=C/C=C/C=C/C2C)O3)cc1 (stereo partly specified) .
Found: NO

Lookup: Can you look up the reported call for CNC(C)[C@@H](O)c1ccc(O)cc1 (stereo partly specified) for me?
Found: NO

Lookup: Dear all, I need the recorded test outcome for `CC(C)N(CC[C@@](C(N)=O)(c1ccccc1)c1ccccn1)C(C)C` , thank you.
Found: NO

Lookup: Which result was noted for this compound in the test: `CNC[C@H](O)c1ccc(O)cc1`
Found: NO

Lookup: Recorded test outcome, item O=[As]O[As]=O (stereo unspecified)
Found: YES

Lookup: Dear all, I need the recorded test outcome for `CN(C)[C@@H]1C(=O)C(C(N)=O)=C(O)[C@]2(O)C(=O)C3=C(O)c4c(O)ccc(Cl)c4[C@](C)(O)[C@H]3C[C@@H]12` , thank you.
Found: NO

Lookup: Outcome? `CC1=C2[C@@H]3OC(=O)[C@@H](C)[C@@H]3CC[C@]2(C)C=CC1=O`
Found: NO

Lookup: Fill in: this test's call for CC(=O)OC1C[C@H](O[C@@H]2C(O)C[C@H](O[C@@H]3C(O)C[C@@H](OC4CC[C@]5(C)C(CCC6C5CC(O)[C@@]5(C)C(C7=CC(=O)OC7)CC[C@@]65O)C4)OC3C)OC2C)O[C@H](C)[C@H]1O[C@H]1OC(CO)C(O)C(O)C1O (stereo partly specified) is ___
Found: NO

Lookup: For `CO[C@@H](COC(N)=O)C1=C(N2CC2)C(=O)C(C)=C(N2CC2)C1=O` , which call appears in the assay record?
Found: YES

Lookup: Called result for `C#CCN(C)[C@@H](C)Cc1ccccc1`
Found: NO

Lookup: Per the assay record, what outcome was assigned to `C[C@H](NC(C)(C)C)C(=O)c1cccc(Cl)c1` ?
Found: NO

Lookup: What classification did CN[C@@H](C)[C@H]1CC[C@@H](N)[C@@H](O[C@@H]2[C@@H](O)[C@@H](O[C@H]3OC[C@@](C)(O)[C@@H](NC)[C@@H]3O)[C@H](N)C[C@@H]2N)O1 (tested in a mixture with another compound) end up with in this test?
Found: NO

Lookup: Hi, do you know how CC([C@H](O)c1ccccc1)N(C)C (stereo partly specified) came out in this test?
Found: NO

Lookup: Lab log entry: CNC(C)[C@@H](O)c1ccccc1 (stereo partly specified) — outcome as called in the assay?
Found: NO

The values you see were collected from PubChem BioAssay (NCATS).
